Listing of recorded Blood glucose lowering rate (%) by entry.
System: C57BL/6J mice
assay-remarks: Oral glucose tolerance test
Assay type: in vivo
condition-parameters: male C57BL/6J mice, fasted overnight; oral gavage 10 mg/kg; solvent 0.5% MC; glucose 3 g/kg orally 30 minutes after compound; area under the curve of blood glucose level relative to control group
readout-name: Blood glucose lowering rate (%)

structure_string=CCc1ccc(-c2ccc(OC)c(C3C4=C(CC(C)(C)CC4=O)OC4=C3C(=O)CC(C)(C)C4)c2)nc1C(=O)O target_of_assay="C57BL/6J mice" endpoint_unit=% value_measured=42
structure_string=COc1ccc(-c2ccc(C)c(C(=O)O)n2)cc1C1C2=C(CC(C)(C)CC2=O)OC2=C1C(=O)CC(C)(C)C2 target_of_assay="C57BL/6J mice" endpoint_unit=% value_measured=55
structure_string=COc1ccc(-c2cccc(C(=O)NS(C)(=O)=O)n2)c(C)c1C1C2=C(CC(C)(C)CC2=O)OC2=C1C(=O)CC(C)(C)C2.[K] target_of_assay="C57BL/6J mice" endpoint_unit=% value_measured=46
